For each entry below, report its GI50 value.
# Test system: OVCAR-5
# assayNotes: NCI tumour cell line growth inhibition, 48 h
The source made the active and inactive calls. Rule as the data show it: active = GI50 up to about 1.1 µM and inactive = higher.

O=C1NC(SSC2=NNC3(C(=O)N2)c2ccccc2-c2ccccc23)=NNC12c1ccccc1-c1ccccc12
> 10 µM (inactive)
Nc1nc(NCCCO)cc(=O)[nH]1
> 100 µM (inactive)

Hi team, please reply with GI50 for each item in this list.
1. CN(C)C(=O)Oc1ccc(C(=S)Nc2ccccc2)cc1
2. CN1C(=O)[C@@]2(C=CC3(CC2)OCCO3)c2ccccc21
3. CC(=O)OC[C@@H]1[C@H]2CC(=O)O[C@H]2C[C@H]1OC(C)=O
4. CCCNc1c(Cl)cc(Cl)c2[nH]c3ccccc3c(=O)c12

1. > 100 µM (inactive)
2. > 50 µM (inactive)
3. > 100 µM (inactive)
4. > 100 µM (inactive)

====

# System: OVCAR-3
# assayNotes: NCI tumour cell line growth inhibition, 48 h
Activity calls are given as the source filed them. Rule as the data show it: active = GI50 up to about 1.1 µM and inactive = higher.
Answer with one of the outcomes given here: active, inactive

# count of solved cases: 5
C=C1CC2C(=O)N(c3ccccc3)C(=O)C2CC1n1[nH]c(=O)n(Cc2ccccc2)c1=O (stereo not drawn)
inactive
COc1ccc([C@H]2[C@H]3COC(=O)[C@H]3C(C#N)=C3Sc4ccccc4N32)cc1
inactive
CSc1ccc2c(cc1=O)[C@@H](NC(=O)c1cc(O)c(O)c(O)c1)CCc1cc(O)c(O)c(O)c1-2
inactive
CC(NC(=O)OC(C)(C)C)C(=O)NC(Cc1ccccc1)C(=O)NCC(=O)ON=C1CCCC1 (stereo not drawn)
inactive
N#Cc1cccc(-n2[nH]c(=O)ccc2=O)c1
inactive

Which result was noted for this compound in the test: CCC(C)N1CN(c2ccccc2)C2(CCN(CCCSc3ccc(F)cc3)CC2)C1=O (stereo not drawn)
inactive

Which result was noted for this compound in the test: O=C(O)c1ccccc1/C=C1\Cc2cc3c(cc2C1=O)CCC3
inactive

Which result was noted for this compound in the test: CC(=O)O[C@H]1C(=O)[C@@]2(C)[C@H]([C@H](OC(=O)c3ccccc3)[C@]3(O)C[C@H](OC(=O)[C@H](O)[C@@H](NC(=O)C(C)(O)C(C)O)c4ccccc4)C(C)=C1C3(C)C)[C@]1(OC(C)=O)CO[C@@H]1C[C@@H]2O (stereo partly drawn)
active

====

# Test system: K562
# assayNotes: NCI tumour cell line growth inhibition, 48 h
Calls of active or inactive are those of the source. No stated cut-off is given here; in the data, active = GI50 up to about 1.1 µM and inactive = higher.
Answer with one of the outcomes given here: Yes (active), No (inactive)

# count of solved cases: 2
COCCOCC(=O)N(CCn1ccc(NC(c2ccccc2)(c2ccccc2)c2ccccc2)nc1=O)CCn1cnc2nc(N)[nH]c(=O)c21
No
CCN(CC)CCNc1ccc2ncn3c4c(OC)ccc(OC)c4c(=O)c1c23
No

Which result was noted for this compound in the test: COc1ccc(/N=C2\C(=O)C3=C(OC(C)(C)CC3)c3ccccc32)cc1
Yes

Which result was noted for this compound in the test: O=C1CS/C(=N/N=C/c2cn(Cc3ccc(Cl)cc3Cl)c3ccccc23)N1
No

Which result was noted for this compound in the test: C[C@@H]1[C@H](C)N1CC(O)Cn1ccnc1[N+](=O)[O-] (stereo partly specified)
No

Which result was noted for this compound in the test: CN(C)c1ccc(/C=C(\NC(=O)c2ccccc2)C(=O)NCC(=O)O)cc1
No

Which result was noted for this compound in the test: COC(=O)C#Cc1cccc(OC)c1OC
No

Which result was noted for this compound in the test: CC1N[B@@-](C)(c2ccc(C(F)(F)F)cc2)OC1c1ccccc1 (stereo partly specified)
No

====

# Test system: DMS-273
# assayNotes: NCI tumour cell line growth inhibition, 48 h
Active and inactive are the calls of the source. Cut-off read from the data, not from the text of the source: active = GI50 up to about 1.1 µM and inactive = higher.
readoutKind: GI50

# count of solved cases: 4
NC(=O)c1nnn(Cc2cc(Cl)c(C(=O)c3ccc(Cl)cc3)c(Cl)c2)c1N
> 9.1 µM (inactive)
N#Cc1cccc(-n2[nH]c(=O)ccc2=O)c1
> 100 µM (inactive)
N=C(N)Nc1ncccc1[N+](=O)[O-]
> 100 µM (inactive)
CCCCCCCCCCOC(=O)NCCC
20.6 µM (inactive)

Hi team, please reply with GI50 for each item in this list.
1. O=S(=O)(N/N=C\c1c2ccccc2[n+]([O-])c2ccccc12)c1ccc(Cl)cc1
2. CCN(CC)CC1c2ccccc2C(CNc2ccccc2)N1C (stereo not given)
3. CNC(=O)N(CCCC(NC(C)=O)C(=O)NCc1ccccc1)Cc1ccccc1 (stereo not given)
4. N#CC(NNC(=O)c1ccccc1O)c1cccc(O)c1 (stereo not given)
5. CC1(C)C(O)C[C@@H](O)[C@@]2(C)C1CC[C@]1(C)C2C[C@@H](O)[C@@H]2C([C@@]3(C)CC[C@@H](C(C)(C)O)O3)CCC21C (stereo not given in full)

1: 93.3 µM (inactive); 2: > 100 µM (inactive); 3: > 100 µM (inactive); 4: 2.32 µM (inactive); 5: 14.6 µM (inactive)

====

# Test system: DU-145
# assayNotes: NCI tumour cell line growth inhibition, 48 h
Activity calls are given as the source filed them. Cut-off read from the data, not from the text of the source: active = GI50 up to about 1.1 µM and inactive = higher.
For each entry below, report its GI50 value.

# count of solved cases: 3
COc1ccc(CN2C(=O)CCC/C=C\[C@H]2CI)cc1
13.3 µM (inactive)
COc1cccc(N2CCc3c(C)c(C#N)c4nc5ccccc5n4c32)c1
> 100 µM (inactive)
Nc1nc(NCCCO)cc(=O)[nH]1
> 100 µM (inactive)

Hi team, please reply with GI50 for each item in this list.
1. Cc1cc(/N=C/c2ccc(F)cc2)n(-c2ccccc2)n1
2. Cc1cc(-c2ccc[nH]2)on1
3. COC(=O)c1c(O)ccc2c1c1c(n2Cc2ccc(Cl)cc2Cl)C(=O)c2ccccc2C1=O
4. O=C1NC(SSC2=NNC3(C(=O)N2)c2ccccc2-c2ccccc23)=NNC12c1ccccc1-c1ccccc12
5. NC(=O)C/C=C/CC(N)=O

> 100 µM (inactive)
> 100 µM (inactive)
11.6 µM (inactive)
> 10 µM (inactive)
> 100 µM (inactive)

====

# Tested on: HCT-116
# assayNotes: NCI tumour cell line growth inhibition, 48 h
The source made the active and inactive calls. Rule as the data show it: active = GI50 up to about 1.1 µM and inactive = higher.
Answer with one of the outcomes given here: 1 for active, 0 for inactive

CCNC(=S)NNC(=O)C12CC3CC(CC(C3)C1)C2
0
O=C1c2ccccc2-c2c1c(-c1ccc(F)cc1)nc1ccc3ccccc3c21
0
O=C1C(=Cc2cccs2)C(=O)N(CCc2ccccc2)S(=O)(=O)N1CCc1ccccc1
0
COP1(=O)OCc2cnccc2O1 (stereo unspecified)
0
CCOC(=O)c1ccc(/N=C2\Sc3nc4ccccc4n3\C2=N\c2ccc(C(=O)OCC)cc2)cc1
0

Which result was noted for this molecule in the test: Nc1ccn([C@@H]2C=C(CO)[C@@H](O)[C@H]2O)c(=O)n1
1

====

# System: NCI-H23
# assayNotes: NCI tumour cell line growth inhibition, 48 h
The source made the active and inactive calls. Rule as the data show it: active = GI50 up to about 1.1 µM and inactive = higher.
For each entry below, report its GI50 value.

# count of solved cases: 5
COc1cn2c(cc1=O)COc1ccc(-c3ccccc3)cc1-2
45.5 µM (inactive)
COc1cc(CC2C(=O)OCC2[C@@H](OC(C)=O)c2ccc3c(c2)OCO3)c(Br)c(OC)c1OC (stereo partly specified)
68.9 µM (inactive)
O=Cc1c[nH]c2c(=O)[nH]cnc12
> 100 µM (inactive)
CN(CCO)c1nc(=O)c2c(n1C1OC(CO)C(O)C(O)C1O)CCCC2 (stereo unspecified)
> 100 µM (inactive)
O=c1[nH]c2c(C(F)(F)F)c(Cl)c(-c3ccccc3)nc2o1
15.3 µM (inactive)

Shift focus to the following entry.
For CN1C(=O)[C@@]2(C=CC3(CC2)OCCO3)c2ccccc21 the molecule record lists GI50 as 21.8 µM (inactive)

====

# Test system: DMS-114
# assayNotes: NCI tumour cell line growth inhibition, 48 h
Active and inactive are the calls of the source. Rule as the data show it: active = GI50 up to about 1.1 µM and inactive = higher.
Answer with one of the outcomes given here: 1 = active, 0 = inactive

# count of solved cases: 10
C/N=c1/ssc(=S)n1C(C)C
0
COc1cc(CC2C(=O)OCC2[C@@H](OC(C)=O)c2ccc3c(c2)OCO3)c(Br)c(OC)c1OC (stereo not given in full)
0
CS(=O)(=O)ON1C(=O)c2ccc(N)cc2C1=O
0
C=C(OC1C(C)=C2C(C1OC(=O)CCCCCCC)C(C)(OC(C)=O)CC(OC(=O)CCC)C1(O)C2OC(=O)C1(C)O)/C(C)=C/C (stereo not given)
1
N#Cc1cccc(-n2[nH]c(=O)ccc2=O)c1
0
CC(=O)NC1=C[C@@H]([C@H]2COC(C)(C)O2)OC1=O
0
c1cc(-c2cn3ccsc3n2)ccn1
0
CC1(C)C(O)OC(O)C1(C)C (stereo not given)
0
CCN(CC)CCOC(c1ccccc1)c1ccccc1.CCOC(=O)Nc1ccc(S(=O)(=O)NCCCl)cc1.CCOC(=O)Nc1ccc(S(=O)(=O)NCCCl)cc1.Nc1ccc(C(=O)O)c(O)c1
0
COc1cc([C@@H]2c3cc4c(cc3[C@@H](NC(=O)c3ccccc3)C3COC(=O)[C@@H]32)OCO4)cc(OC)c1O (stereo not given in full)
0

Which result was noted for this compound in the test: CCOC(=O)C(C)(C)Oc1ccc2c(C)c(-c3ccc(Cl)cc3)c(=O)oc2c1
0

Which result was noted for this compound in the test: Cc1ccc2nc3c(C(=O)NCCN(C)C)cccc3nc2c1
0

Which result was noted for this compound in the test: N#CC1CCCCC1NC1(C#N)CCCCC1 (stereo not given)
0
